The measured values listed here are drawn from patent US20240150293A1.

- study_system: Mcl-1 protein (UniProtKB Q07820) (Homo sapiens (Human), UniProt Q07820)
- Sequence (Q07820 whole entry): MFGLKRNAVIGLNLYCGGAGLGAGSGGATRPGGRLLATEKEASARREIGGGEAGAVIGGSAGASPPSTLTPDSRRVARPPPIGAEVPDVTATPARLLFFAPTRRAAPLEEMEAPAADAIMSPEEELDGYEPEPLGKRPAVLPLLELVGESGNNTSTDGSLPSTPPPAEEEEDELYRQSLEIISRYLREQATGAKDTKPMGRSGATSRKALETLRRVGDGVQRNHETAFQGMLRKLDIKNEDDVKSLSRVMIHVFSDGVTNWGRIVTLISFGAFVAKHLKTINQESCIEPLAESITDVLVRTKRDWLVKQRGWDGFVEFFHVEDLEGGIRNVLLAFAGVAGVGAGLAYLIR
- assay_summary: Inhibition of Mcl-1 by the fluorescence polarisation assay (Example A, Method A)
- condition_label: fluorescence polarization assay
- Description: The relative binding potency of each compound was determined via Fluorescence Polarisation (FP). The method utilised a Fluorescein labelled ligand (Fluorescein-βAla-Ahx-A-REIGAQLRRMADDLNAQY-OH; MW 2,765) which binds to the Mcl-1 protein (such that Mcl-1 corresponds to the UniProtKB® primary accession number: Q07820) leading to an increased anisotropy measured in milli-polarisation (mP) units using a reader. […]
reported_property: pKi
The quantity pKi is defined as the negative base-10 logarithm of the molar concentration.

Past entries and their recorded results:
CN1CC2(CCC(Nc3cccc(Br)c3)(C(=O)O)CC2)c2ccccc21 (stereo not shown) [Example 4] :: 5.23
O=C(O)[C@]1(Nc2cccc(Cl)c2)CC[C@]2(CC1)C(C1CC(OCc3ccccc3)C1)=Cc1ccccc12 (stereo partly shown) [Example 97] :: 6.24
CCC1=C(C)[C@]2(CC[C@@](Nc3cccc(Cl)c3)(C(=O)O)CC2)c2ccccc21 [Example 206] :: 5.33

Ask: Answer with the recorded pKi of C[C@@H](COc1ccnc2occc12)C[C@H]1Cc2ccccc2[C@]12CC[C@@](Nc1cccc(Cl)c1)(C(=O)O)CC2 [Example 606] only.
Result: 7.11

###

- study_system: Mcl-1 protein (UniProtKB Q07820) (Homo sapiens (Human), UniProt Q07820)
- assay_summary: Inhibition of Mcl-1 by the fluorescence polarisation assay (Example A, Method A)
- condition_label: fluorescence polarization assay
This listing pairs compounds with measured Ki.
Please don't drop the unit; write it after the number.

Past entries and their recorded results:
COCCCC1Cc2ccccc2[C@]12CC[C@@](Nc1cccc(Cl)c1)(C(=O)O)CC2 (stereo partly drawn) [Example 197] :: 1.38 µM
O=C(O)[C@]1(Nc2cccc(Cl)c2)CC[C@@]2(CC1)c1ccccc1C[C@H]2c1cccc(OCc2ccccc2)c1 [Example 332] :: 0.475 µM
O=C(O)[C@]1(Nc2cccc(Br)c2)CC[C@@]2(CC1)C(CCCc1ccccc1)=Cc1ccccc12 [Example 149] :: 63.3 µM
O=C(O)[C@]1(Nc2cccc(Cl)c2)CC[C@@]2(CC1)c1ccccc1CN2CCCOc1ccccc1 [Example 35] :: 0.332 µM
O=C(O)C1(Nc2cccc(Br)c2)CCC2(CC1)c1ccccc1CC2CCCc1ccccc1 (single isomer, unassigned) [Example 151] :: 1.34 µM
O=C(O)[C@]1(Nc2cccc(Cl)c2)CC[C@@]2(CC1)c1ccccc1C[C@H]2c1ccc(-c2ccccc2)o1 [Example 356] :: 0.476 µM
O=C(O)[C@]1(Nc2cccc(Cl)c2)CC[C@@]2(CC1)c1ccccc1CC2C1CCCC1 (single isomer, unassigned) [Example 91] :: 1.43 µM
O=C(O)[C@]1(Nc2cccc(Cl)c2)CC[C@@]2(CC1)c1ccccc1CC2c1cccc2c1OCC2 (single isomer, unassigned) [Example 296] :: 3.46 µM
O=C(O)[C@]1(Nc2cccc(Cl)c2)CC[C@]2(CC1)C(CCOc1ccncc1F)=Cc1ccccc12 [Example 190] :: 0.0443 µM
CN1c2ccc(Br)cc2[C@]2(CC[C@](Nc3cccc(Br)c3)(C(=O)O)CC2)C1=O [Example 6] :: 9.91 µM

Ask: Answer with the recorded Ki of O=C(O)[C@]1(Nc2cccc(Cl)c2)CC[C@]2(CC1)C(c1ccc(Oc3cccnc3)cc1)=Cc1ccccc12 [Example 351] only.
Result: 0.544 µM

Ask: Answer with the recorded Ki of O=C(O)[C@]1(Nc2cccc(Cl)c2)CC[C@@]2(CC1)c1ccccc1C[C@H]2c1cccc(Cc2ccccc2)c1 [Example 325] only.
Result: 0.289 µM

Ask: Answer with the recorded Ki of O=C(O)C1(Nc2cccc(Br)c2)CCC2(C=Cc3cccc(Br)c32)CC1 (single isomer, unassigned) [Example 59] only.
Result: 4.21 µM

###

- study_system: Cy5-labelled Mcl1 (amino acids 171-321) C286S protein (UniProtKB Q07820) (Homo sapiens (Human), UniProt Q07820, C286S)
- Sequence (Q07820 171-321 C286S): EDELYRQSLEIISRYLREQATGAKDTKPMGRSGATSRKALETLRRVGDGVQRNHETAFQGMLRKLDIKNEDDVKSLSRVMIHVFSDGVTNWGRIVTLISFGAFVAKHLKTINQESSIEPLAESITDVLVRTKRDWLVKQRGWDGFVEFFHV
- assay_summary: Inhibition of Mcl-1 by the fluorescence quenching assay (Example A, Method B)
- Format: binding
reported_property: Ki
Please don't drop the unit; write it after the number.

Past entries and their recorded results:
C[C@@H](COc1ccnc2c1[C@H](C)CC[C@H]2C)C[C@H]1Cc2ccccc2[C@]12CC[C@@](Nc1cccc(Cl)c1)(C(=O)O)CC2 :: 1.39 nM
C[C@@H](COc1ccnc2c1[C@H](C)CCC2)C[C@H]1Cc2cc3c(cc2[C@]12CC[C@@](Nc1cccc(Cl)c1)(C(=O)NS(C)(=O)=O)CC2)OCO3 :: 6.24 nM
C[C@@H](COc1ccnc2c1[C@H](C)CCC2)C[C@H]1Cc2cc3c(cc2[C@]12CC[C@@](Nc1cccc(Cl)c1)(C(=O)OCOP(=O)(OC(C)(C)C)OC(C)(C)C)CC2)OCO3 :: 36.9 nM
Cc1cc2c(cc1C)[C@]1(CC[C@@](Nc3cccc(Cl)c3)(C(=O)O)CC1)[C@@H](C[C@@H](C)COc1ccnc3c1[C@H](C)CCC3)C2 :: 0.455 nM
C[C@@H](COc1ccnc2c1[C@@H](CC(F)(F)F)CCC2)C[C@H]1Cc2ccccc2[C@]12CC[C@@](Nc1cccc(Cl)c1)(C(=O)O)CC2 :: 100 nM

Ask: Answer with the recorded Ki of C[C@@H](COc1ccnc2c1[C@H](C)CCC2)CC1Cc2c(Cl)c(F)ccc2[C@]12CC[C@@](Nc1cccc(Cl)c1)(C(=O)O)CC2 (single isomer, unassigned) [Example 746] only.
Result: 0.356 nM

Ask: Answer with the recorded Ki of Cc1ccc(N[C@]2(C(=O)O)CC[C@]3(CC2)c2ccccc2C[C@@H]3C[C@@H](C)COc2ccnc3c2[C@H](C)CCC3)cc1Cl only.
Result: 6.4 nM

Ask: Answer with the recorded Ki of C[C@@H](COc1ccnc2c1[C@H](C)CCC2)CC1Cc2c(F)c(Cl)ccc2[C@]12CC[C@@](Nc1cccc(Cl)c1)(C(=O)O)CC2 (single isomer, unassigned) [Example 748] only.
Result: 1.5 nM

Ask: Answer with the recorded Ki of C[C@@H](COc1ccnc2c1[C@H](C)CCC2)CC1=Cc2cc(Cl)ccc2[C@]12CC[C@@](Nc1cccc(Cl)c1)(C(=O)O)CC2 only.
Result: 0.725 nM

###

- study_system: Mcl-1 protein (UniProtKB Q07820) (Homo sapiens (Human), UniProt Q07820)
- assay_summary: Inhibition of Mcl-1 by the fluorescence polarisation assay (Example A, Method A)
- condition_label: fluorescence polarization assay
reported_property: Ki (µM)
Report only the number, with the unit µM understood.

COc1ccc(C2=Cc3ccccc3[C@]23CC[C@](Nc2cccc(Cl)c2)(C(=O)O)CC3)cc1Cl [Example 226] :: 23.7
CCCC1Cc2ccccc2[C@]12CC[C@@](Nc1cccc(Br)c1)(C(=O)O)CC2 (stereo partly shown) [Example 148] :: 0.258
O=C(O)[C@]1(Nc2cccc(Cl)c2)CC[C@@]2(CC1)c1ccccc1CC2c1ccc2ccoc2c1 (single isomer, unassigned) [Example 290] :: 14.4

Continue with the next molecule.
Ask: Answer with the recorded Ki of O=C(O)[C@]1(Nc2cccc(Cl)c2)CC[C@]2(CC1)C(COCCc1ccc(F)cc1)=Cc1ccccc12 [Example 413] only.
Result: 0.704

###

This listing pairs molecules with measured log10(Ki).
- study_system: Mcl-1 protein (UniProtKB Q07820) (Homo sapiens (Human), UniProt Q07820)
- assay_summary: Inhibition of Mcl-1 by the fluorescence polarisation assay (Example A, Method A)
- condition_label: fluorescence polarization assay
In plain terms, each number is the log10 of measured Ki in nM.

Past entries and their recorded results:
O=C(O)[C@]1(Nc2cccc(O)c2)CC[C@]2(CC1)C(Br)=Cc1ccccc12 :: 3.86
C[C@@H]1CCc2ncnc(OCCCC3Cc4ccccc4[C@]34CC[C@@](Nc3cccc(Cl)c3)(C(=O)O)CC4)c21 (stereo partly shown) :: 1.52
O=C(O)[C@]1(Nc2cccc(Cl)c2)CC[C@@]2(CC1)c1ccccc1CC2CCCOc1ccnc2[nH]ccc12 (stereo partly shown) :: 1.88
COCCOc1cccc(N[C@]2(C(=O)O)CC[C@@]3(CC2)C(Br)=Cc2ccccc23)n1 :: 4.07
O=C(O)[C@]1(Nc2cccc(Cl)c2)CC[C@]2(CC1)C(c1cccc(O)c1)=Cc1ccccc12 :: 3.24

Ask: Answer with the recorded log10(Ki) of O=C(O)[C@]1(Nc2cccc(Cl)c2)CC[C@@]2(CC1)c1ccccc1CC2CCCOC1CCOCC1 (stereo partly shown) only.
Result: 2.87

Ask: Answer with the recorded log10(Ki) of CC[C@H](COc1ccncc1)C[C@H]1Cc2ccccc2[C@]12CC[C@@](Nc1cccc(Cl)c1)(C(=O)O)CC2 only.
Result: 2.27
